Give measured TGI for each item. Keep answers brief.
system: MDA-N; assay: NCI tumour cell line growth inhibition, 48 h

input: Given `c1cc(CN2CCNCCNCCNCC2)cc(CN2CCNCCNCCNCC2)c1` , state its recorded TGI.
output: > 100 µM

input: Given `O=C(/C=C(\Nc1ccccc1O)c1ccc(Br)cc1)C(Cl)(Cl)Cl` , state its recorded TGI.
output: 17.3 µM

input: Given `O/N=C1/CCCc2nonc21` , state its recorded TGI.
output: > 100 µM

input: Given `c1cncc(CSc2ncnc3nc[nH]c23)c1` , state its recorded TGI.
output: > 100 µM

input: Given `S=C(N/N=C/c1ccccn1)N1CCCCCC1` , state its recorded TGI.
output: > 48.9 µM

input: Given `O=c1[nH]c2nc[nH]c2c(=O)n1C1CCCCC1` , state its recorded TGI.
output: > 100 µM

input: Given `CSc1nc2c3ccccc3ccn2c1C(=O)N/N=C/c1ccccc1` , state its recorded TGI.
output: > 100 µM

input: Given `Nc1ccc(-c2nc3ccc(F)cc3s2)cc1I` , state its recorded TGI.
output: > 100 µM

input: Given N#Cc1c(-c2ccccc2)cc(-c2ccccc2)n(C2OCC(O)C(O)C2O)c1=S (configuration not stated) , state its recorded TGI.
output: 55 µM

input: Given `Cc1ccc(/N=N/C(=NNC(=O)c2ccc(C)cc2)c2ccc(N(C)C)cc2)cc1` , state its recorded TGI.
output: 46.1 µM

input: Given `COc1ccc(NC/C=C/C(=C/COC(C)=O)OC(C)=O)cc1` , state its recorded TGI.
output: 4.07 µM

input: Given C=C1C2CCC3(CCC4C5(C)CCCC4(C=[N+](CCO)C5)C3C2)C1O (configuration not stated) , state its recorded TGI.
output: > 100 µM
